Ref: patent US7056679B2

Assign LDH (OD) to each entry below.
tested on: lactate dehydrogenase (LDH); test: ELISA analysis of phage on LDH (irrelevant, non-specific target); assay type: binding; conditions: peptide binding to LDH polypeptide (non-specific binding); phage ELISA units read at 405 nm

Give LDH (OD) for each of the items listed below.
1. RRFVRCSVPVALRSAVPVSV (DGI-2-20F-PP-A10; listed as Escherichia coli)
2. VSFAHDWGRWWYQWEVG (DGI-2-20R-4-G22; listed as Escherichia coli)
3. LWRRWSEGQLLGDGELRGDG (DGI-2-20R-3-B52; listed as Escherichia coli)
4. VLGADAGMIWFMDGCGIRCR (DGI-2-20R-4-E6; listed as Escherichia coli)
5. VWAAWVEGSLLSPRQEPVRD (DGI-2-20R-4-G4; listed as Escherichia coli)

["1.0 OD", "1.2 OD", "1.0 OD", "1.0 OD", "1.0 OD"]

Dear colleague, could you please provide LDH (OD) for the sequences listed below?
1. SIVSSRSGWQRGWIAWEAPV (SIVSSRSGWQRGWIAWFAPV; DGI-2-20F-PP-E5; listed as Escherichia coli)
2. LPQSRWLSEAWASWVDGVVD (DGI-2-20F-4-F9; listed as Escherichia coli)
3. QSNVWVLVGVIMQGVWYQRQHYCVYVMLLSDQVSVLLAVA (DGI-2-40F-3-B6; listed as Escherichia coli)

["1.0 OD", "1.0 OD", "0.8 OD"]

---

Target: DGI-2 (Homo sapiens)
Construct: encompassed the entire DGI-2 open reading frame (ORF); His-tag of vector pIVEX2.3-MCS (inferred from the vector and from the reverse primer lacking a stop codon); made in house; host or cells: cell-free in vitro translation (Rapid Translation System RTS, Roche; E. coli lysate)
Sequence (Q15004 1-111): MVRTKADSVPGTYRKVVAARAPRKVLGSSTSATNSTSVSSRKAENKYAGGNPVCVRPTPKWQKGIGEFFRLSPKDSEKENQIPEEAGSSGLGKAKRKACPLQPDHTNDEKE
Assay: ELISA analysis of phage on DGI-2 polypeptide (specific binding)
Conditions: ratio of specific binding to non-specific binding
Criterion: DGI-2/LDH (OD) strictly less than 7. Met: Fulfilled. Not met: Not fulfilled.

SUBSTANCE	LABEL VALUE
S#ARSLMTGVVAVCIVWRGP (SARSLMTGVVAVCIVWRGP; DGI-2-20F-PP-E8; listed as Escherichia coli)	Fulfilled

Dear colleague, could you confirm whether DGI-2/LDH (OD) of SAFGCPLPRALGGGGARFYA (DGI-2-20F-PP-E11; listed as Escherichia coli) falls below 7? Thanks.
Fulfilled

Does the reported DGI-2/LDH (OD) of the following substance sit strictly below 7? QSNVWVLVGVIMQGVWYQRQHYCVYVMLLSDQVSVLLAVA (DGI-2-40F-3-B6; listed as Escherichia coli)
Fulfilled

# strict comparison: is reported DGI-2/LDH (OD) < 7? input = QGSAHVVRPPGVYDVPWKVGMFFHPQNWPNSWGRAYFRSG (DGI-2-40F-3-D12; listed as Escherichia coli)
Fulfilled

In plain terms, does SRELGKWGRLWQDWSSGNFS (DGI-2-20R-3-C11; listed as Escherichia coli) come in under 7 for DGI-2/LDH (OD)?
Not fulfilled

Dear reviewer, please state whether LFSATGCALMSGFCLGSDGS (DGI-2-20R-3-C1; listed as Escherichia coli) has DGI-2/LDH (OD) strictly beneath 7.
Not fulfilled

Please determine if GWGCSVPGILCVGGHRQGGG (DGI-2-20R-3-B11; listed as Escherichia coli) is below 7 in terms of DGI-2/LDH (OD).
Fulfilled

---

Assign ETAG (OD) to each entry below.
test system: E-tag antibody; assay: ELISA analysis of phage on antibody raised against ETAG (positive control); conditions: peptide binding to E-tag antibody; phage ELISA units read at 405 nm
One number for each entry, in OD.

As a guide, the following entries are already answered.
CHAIN	TARGET UNDER TEST	ETAG (OD)
GEVDCVYALTHRFLSPQVQYHIHRPV (GEVDCVYALTHRFLSPQVQYHHRPV; DGI-2-20C-3-A12; listed as Escherichia coli)	E-tag antibody	8.1
HPWVTNMLVFQRPPPPGFWLSDTTPRQRNGLGQVERPSVD (DGI-2-40F-3-C7; listed as Escherichia coli)	E-tag antibody	8.8
RCFQDGRMLALSPTYLIRRSVSPLVVGPLPTP (DGI-2-40F-3-A24; listed as Escherichia coli)	E-tag antibody	11.7
GSTRLRVTVRFCSETGTPGC (DGI-2-20F-PP-G6; listed as Escherichia coli)	E-tag antibody	36.1
VVRQGCMAFSGLCSGVTESE (DGI-2-20R-3-C8; listed as Escherichia coli)	E-tag antibody	21.1
TFTRDVAGPAVSFVRLHSWN (DGI-2-20F-PP-A9; listed as Escherichia coli)	E-tag antibody	40.8

# context switch: different sequence, same ETAG (OD)
Return ETAG (OD) (reported value) for this sequence: VVHTRAWGSWAYGFVLRNRG (DGI-2-20F-PP-F10; listed as Escherichia coli)
42.5

---

Biological target: DGI-2 (Homo sapiens, UniProt Q15004)
Construct: encompassed the entire DGI-2 open reading frame (ORF); His-tag of vector pIVEX2.3-MCS (inferred from the vector and from the reverse primer lacking a stop codon); made in house; host or cells: cell-free in vitro translation (Rapid Translation System RTS, Roche; E. coli lysate)
Sequence (Q15004 1-111): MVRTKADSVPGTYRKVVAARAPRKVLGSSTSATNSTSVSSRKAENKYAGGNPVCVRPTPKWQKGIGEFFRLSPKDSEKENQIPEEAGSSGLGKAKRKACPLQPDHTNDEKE
Assay: ELISA analysis of phage on DGI-2 polypeptide (specific binding)
Details: binding to DGI-2 polypeptide (specific binding); phage ELISA units read at 405 nm
ASSAY METRIC: DGI-2 (OD)
Answers are plain numbers, in OD.

# example entries with known answers
CHAIN	MEASURE UNIT	DGI-2 (OD)
LSHPMSPLRAASQMALTQGV (DGI-2-20R-4-H7; listed as Escherichia coli)	OD	3.1
SVTISTSCRTGCPAGYLRRD (DGI-2-20F-PP-D2; listed as Escherichia coli)	OD	2.2
RPVVCLAGLTLAQFGWVFPGWRGWS (DGI-2-20C-3-C1039; listed as Escherichia coli)	OD	4.7
GAIRLSGAAWTASRTGGRAS (DGI-2-20F-PP-E7; listed as Escherichia coli)	OD	1.6
RMYNCHYIERLYDWHAGRJLLQDPA (RMYNCHYIERLYDWHAGRILLQDPA; not fully specified; non-natural residue J; DGI-2-20C-4-E926; listed as Escherichia coli)	OD	2.9
RSYPRLCKQKGGVIGRMLPG (DGI-2-20F-PP-B2; listed as Escherichia coli)	OD	3.3
MQAASTLSTYMGAIRMGYPILHWDRGGVQRVDPGLYRGRV (DGI-2-40F-3-B10; listed as Escherichia coli)	OD	1.3
GMWIRPNGHMELQGGYTARS (GMWIRPNGHMFLQGGYTARS; DGI-2-20R-4-G8; listed as Escherichia coli)	OD	1.5
GIMQVAWGWREMTRLWDLGMA (GIMQVAWGWREWRLWDLGMA; DGI-2-20R-3-C6; listed as Escherichia coli)	OD	6.0
QMSRVAFSPGESWRRWVEGV (DGI-2-20R-3-A2; listed as Escherichia coli)	OD	7.5

Report DGI-2 (OD) for each item below.
1. LQIVRPAGMTKMPGQVGYYIG (LQIVRPAGWKMPGQVGYYIG; DGI-2-20R-3-A9; listed as Escherichia coli)
2. GGSLPVKSGQLVTCCTSKGG (DGI-2-20F-PP-F5; listed as Escherichia coli)
3. SRGMAEAQFSAWPVLAVFPL (DGI-2-20F-PP-H8; listed as Escherichia coli)
4. RDTTSQWSWISRGWEFPGWR (DGI-2-20R-3-C2; listed as Escherichia coli)
5. LTPYSLARSWLSGRPSTGAT (DGI-2-20F-3-C12; listed as Escherichia coli)

1: 3.4; 2: 2.3; 3: 1.6; 4: 6.2; 5: 3.2

---

Molecular target: DGI-2 (Homo sapiens)
Construct: encompassed the entire DGI-2 open reading frame (ORF); His-tag of vector pIVEX2.3-MCS (inferred from the vector and from the reverse primer lacking a stop codon); made in house; host or cells: cell-free in vitro translation (Rapid Translation System RTS, Roche; E. coli lysate)
Sequence (Q15004 1-111): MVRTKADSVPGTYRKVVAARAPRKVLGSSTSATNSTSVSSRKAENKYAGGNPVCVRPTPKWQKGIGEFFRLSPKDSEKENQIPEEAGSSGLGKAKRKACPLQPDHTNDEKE
Experiment: ELISA analysis of phage on DGI-2 polypeptide (specific binding)
Settings: ratio of specific binding to non-specific binding
Hi, to clarify the labels: T covers DGI-2/LDH (OD) from 3 upward, F covers anything below 3.

SUBSTANCE	LABEL VALUE
RQRSGGRWVVDRVTRVASTSP (DGI-2-20F-PP-B12; listed as Escherichia coli)	F
MGADTCMGGKMPFDQMFGAV (DGI-2-20F-PP-E10; listed as Escherichia coli)	F

Does the reported DGI-2/LDH (OD) for LGRIVRPCVVRLCGGV##GV (LGRIVRPCVVRLCGGVGV; DGI-2-20F-PP-G10; listed as Escherichia coli) fall at or above the 3 mark?
F

Check if DGI-2/LDH (OD) >= 3 (inclusive). Item: LHFGSVMGWRPPGSLWSRPFGQVHPRSWSGS (DGI-2-40F-3-D11; listed as Escherichia coli)
F

Could you verify whether the entry TCWIHRGLNVVRYSVNFGVRDARLTTQGMAWFPPGCGQGCV (TCWHRGLNVVRYSVNFGVRDARLTTQGMAWFPPGCGQGCV; DGI-2-40F-4-E62; listed as Escherichia coli) shows DGI-2/LDH (OD) of no less than 3?
T
